# TARGET UNDER TEST: L. lactis OppA (Lactococcus lactis subsp. lactis)
# Sequence (Q07741 35-600 limits assumed): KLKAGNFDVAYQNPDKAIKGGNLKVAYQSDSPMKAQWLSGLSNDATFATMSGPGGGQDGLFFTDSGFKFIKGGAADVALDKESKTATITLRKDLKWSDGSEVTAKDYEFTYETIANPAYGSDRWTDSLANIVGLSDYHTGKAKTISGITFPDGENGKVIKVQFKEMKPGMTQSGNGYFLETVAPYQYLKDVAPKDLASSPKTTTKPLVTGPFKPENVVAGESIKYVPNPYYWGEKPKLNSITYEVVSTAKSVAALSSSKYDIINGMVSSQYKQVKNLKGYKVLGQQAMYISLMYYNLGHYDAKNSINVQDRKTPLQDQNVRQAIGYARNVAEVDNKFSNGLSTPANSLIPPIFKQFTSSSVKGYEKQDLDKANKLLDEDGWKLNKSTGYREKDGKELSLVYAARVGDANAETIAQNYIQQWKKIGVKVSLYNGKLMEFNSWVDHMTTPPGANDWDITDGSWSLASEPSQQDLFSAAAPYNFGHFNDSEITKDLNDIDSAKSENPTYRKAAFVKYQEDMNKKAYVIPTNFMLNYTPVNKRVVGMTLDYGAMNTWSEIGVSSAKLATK
# TEST SUMMARY: Fluorescence anisotropy competition binding assay
Ends that are not written are not given here.
RECORDED METRIC: Kd (µM)

[[record]]
primary_sequence = "SLSQSKVLPVPQ [casein-derived peptide]"
meas_value = 0.2

[[record]]
primary_sequence = "YGGFLRRIR [dynorphin-A (1–9)]"
meas_value = 13.3

